# Test system: AMPA-R
# assayInfo: [3H]AMPA radioligand binding assay on rat brain synaptic membranes
# studyConditions: Experiment #1, 100 uM
# % Inhibition @ 100 uM per record follows
readoutKind: % Inhibition @ 100 uM

ALGLCLALCLTLTLTLGL [RG-NG-1006]    93.9%
ASGSCMASCMUSUMUSGS [RG-NG-1003]    77.8%
ASCSAMAFUFGFCMASCS [RG5124, reference compound]    −5.1%
USASASGSCSASCSUSUSUSGS [RG-NG-1004]    76.1%

---

# Test system: AMPA-R
# assayInfo: [3H]AMPA radioligand binding assay on rat brain synaptic membranes
# studyConditions: Table 8, 10 uM
e = 2'-O-(2-methoxyethyl) (MOE); k = constrained ethyl (cEt); d = 2'-deoxy (DNA); m = 2'-O-methyl; f = 2'-fluoro
# % Inhibition @ Concentration 10 uM per record follows
readoutKind: % Inhibition @ Concentration 10 uM (%)

CETEGSCEAECETEGSTEADASGSCMAFCFUFUMUSGS (CTGCACTGTAAGCACUUUG; sugars from the 5' end eekeeeekedkkmfffmkk, backbone and methylation of C not given here) [RG-NG-1040]    38.9
ASGSCMAFCFUFUMUSGM [RG-NG-1034]    85.2
ASGSCSASCSUSUSUSGS [RG-NG-1001]    99.3
ASGSCMAFCFUFUMUSGD [RG-NG-1033]    96.5
ASGSCMAFCFUFUMUSAM [RG-NG-1038]    47.4
ASGSCMAFCFUFUMUSED [RG-NG-1039]    35.8
ASCSAMAFUFGFCMASCS [RG5124, reference compound]    4.4
ASGSCMAFCFUFUMUSNM [RG-NG-1036]    36.2
ASGSCMAFCFUFUMUSIM [RG-NG-1035]    91.3
GSCEAECETEGSTEADASGSCMAFCFUFUMUSGS (GCACTGTAAGCACUUUG; sugars from the 5' end keeeekedkkmfffmkk, backbone and methylation of C not given here) [RG-NG-1032]    78.3
ASGSCMAFCFUFUMUSAS [RG-NG-1015]    −7
ASGSCMAFCFUFUMUSGS [RGLS4326, reference compound]    83.5
ASGSCMAFCFUFUMUSDM [RG-NG-1037]    2.4

---

# Test system: AMPA-R
# assayInfo: [3H]AMPA radioligand binding assay on rat brain synaptic membranes;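 note: competition binding in which test compounds at rising concentrations displace [3H]AMPA from AMPA-R on rat brain synaptic membranes, with reduced bound radioligand as read-out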
# studyConditions: Experiment #3, 10 uM
readoutKind: % Inhibition @ 10 uM (%)

AECETEGSTEAASGSCMAFCFUFUMUSCS (ACTGTAAGCACUUUC; S-cEt, 2'-MOE, 2'-F, 2'-OMe modifications; modified_base 3 OTHER; thymine; modified_base 5 OTHER; misc_feature 1..15 Synthetic: RG-NG-1018; modified_base 1..3 OTHER; 2'-O-methoxyethyl nucleoside; modified_base 4 OTHER; S-constrained ethyl nucleoside; modified_base 7..8 OTHER; modified_base 9 OTHER; 2'-O-methyl nucleoside; modified_base 10..12 OTHE)    1

---

# testSystem: AMPA-R (GluA1/GluA4) (Homo sapiens, UniProt P42261+P48058)
# Construct: host or cells: ChanTest GluA1/GluA4 EZCells
# Sequence (P42261 19-906): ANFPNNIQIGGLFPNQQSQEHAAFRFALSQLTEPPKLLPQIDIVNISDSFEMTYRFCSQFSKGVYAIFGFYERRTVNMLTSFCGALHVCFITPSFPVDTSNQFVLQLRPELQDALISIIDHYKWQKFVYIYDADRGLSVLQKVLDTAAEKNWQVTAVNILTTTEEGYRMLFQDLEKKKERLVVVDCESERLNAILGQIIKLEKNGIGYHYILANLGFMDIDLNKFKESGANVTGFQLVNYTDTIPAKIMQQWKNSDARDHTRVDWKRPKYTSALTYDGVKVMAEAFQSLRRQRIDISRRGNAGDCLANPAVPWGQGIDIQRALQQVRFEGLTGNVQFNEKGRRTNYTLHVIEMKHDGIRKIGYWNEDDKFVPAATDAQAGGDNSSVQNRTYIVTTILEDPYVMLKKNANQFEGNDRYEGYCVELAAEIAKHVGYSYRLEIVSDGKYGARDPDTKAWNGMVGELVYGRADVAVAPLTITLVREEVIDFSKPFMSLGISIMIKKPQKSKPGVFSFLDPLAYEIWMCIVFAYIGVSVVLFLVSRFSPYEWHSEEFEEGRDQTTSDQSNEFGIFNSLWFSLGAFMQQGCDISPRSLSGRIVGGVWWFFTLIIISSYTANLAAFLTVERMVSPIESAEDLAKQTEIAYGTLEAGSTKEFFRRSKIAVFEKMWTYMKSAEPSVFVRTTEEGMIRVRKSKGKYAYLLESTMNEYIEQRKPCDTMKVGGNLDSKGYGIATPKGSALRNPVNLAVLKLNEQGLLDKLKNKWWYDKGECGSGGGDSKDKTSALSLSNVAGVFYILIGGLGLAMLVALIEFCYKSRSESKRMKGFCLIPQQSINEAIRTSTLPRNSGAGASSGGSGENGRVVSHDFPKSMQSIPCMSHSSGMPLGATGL
# Sequence (P48058 21-902): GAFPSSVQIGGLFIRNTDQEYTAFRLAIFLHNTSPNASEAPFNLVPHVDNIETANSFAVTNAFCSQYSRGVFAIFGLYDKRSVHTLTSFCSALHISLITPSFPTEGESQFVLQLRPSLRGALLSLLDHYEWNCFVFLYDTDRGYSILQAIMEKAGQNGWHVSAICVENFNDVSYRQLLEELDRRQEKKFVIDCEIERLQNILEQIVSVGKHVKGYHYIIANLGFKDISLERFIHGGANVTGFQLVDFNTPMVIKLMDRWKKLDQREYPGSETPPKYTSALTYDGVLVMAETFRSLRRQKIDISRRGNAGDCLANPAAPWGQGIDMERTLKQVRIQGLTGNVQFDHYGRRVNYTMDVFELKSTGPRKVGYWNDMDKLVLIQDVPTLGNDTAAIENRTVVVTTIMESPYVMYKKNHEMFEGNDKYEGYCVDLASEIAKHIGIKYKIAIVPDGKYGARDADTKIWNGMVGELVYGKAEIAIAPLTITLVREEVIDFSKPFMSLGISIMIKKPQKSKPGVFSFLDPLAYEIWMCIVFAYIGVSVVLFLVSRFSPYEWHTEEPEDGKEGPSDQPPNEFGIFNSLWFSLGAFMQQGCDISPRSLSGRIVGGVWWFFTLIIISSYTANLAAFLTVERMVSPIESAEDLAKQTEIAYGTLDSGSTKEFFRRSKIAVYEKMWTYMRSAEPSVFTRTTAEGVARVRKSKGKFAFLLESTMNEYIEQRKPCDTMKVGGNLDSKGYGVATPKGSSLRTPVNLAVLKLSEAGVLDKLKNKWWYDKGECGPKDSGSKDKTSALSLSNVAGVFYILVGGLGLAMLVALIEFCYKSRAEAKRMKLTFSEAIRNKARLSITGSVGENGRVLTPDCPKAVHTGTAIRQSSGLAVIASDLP
# assayInfo: Manual whole-cell patch clamp, ChanTest GluA1/GluA4 EZCells
# Format: cell-based
# studyConditions: 0.3 uM compound
# % Inhibition on membrane currents evoked with 10 uM (s)-AMPA (Mean ± SD) per record follows
readoutKind: % Inhibition on membrane currents evoked with 10 uM (s)-AMPA (Mean ± SD) (%)

ASGSCMAFCFUFUMUSCS [RG-NG-1016]    16.0
ASGSCMAFCFUFUMUSGS [RGLS4326, reference compound]    46.9
ASCSAMAFUFGFCMASCS [RG5124, reference compound]    14.1
ASGSCMAFCFUFUMUSAS [RG-NG-1015]    16.0
ASGSCSASCSUSUSUSGS [RG-NG-1001]    80.5
ASGSCMAFCFUFUMUSUS [RG-NG-1017]    20.0
